# System: CCRIS mutagenicity, Ames/micronucleus/aberration tests
# Experiment: CCRIS mutagenicity studies
# Applied conditions: Test System: AMES SALMONELLA TYPHIMURIUM; Strain/Indicator: TA98; Metabolic Activation: RAT, LIVER, S-9, AROCLOR 1254; Method: STANDARD PLATE
Active and inactive are the calls of the source. How the calls were made is not given here.
Outcome codes: TRUE = active, FALSE = inactive

> print(dat)
                                   molecule  qualitative.label
1                      O=C(/C=N/O)Nc1ccccc1              FALSE
2           O=C(c1ccccc1)n1ncc(Cl)c(Cl)c1=O              FALSE
3                                 Cc1ccccn1              FALSE
4  O=[N+]([O-])c1ccc(N=Nc2ccc(N(CCO)CCO)cc2)c([N+](=O)[O-])c1               TRUE
5  CC1(O)CC2CCC1(C)C2(C)C (configuration not stated)              FALSE
6    CC(C)CCCCCCOC(=O)CCCCC(=O)OCCCCCCC(C)C              FALSE
7       CC(=O)N1CCC[C@H]1C(=O)N(CC(=O)O)N=O              FALSE
